Source listed as ChEMBL document CHEMBL1145325.

- System: THP-1
- experiment: Inhibition of LPS-stimulated TNFalpha release in human THP1 cells
- Type: functional, cell-based
endpoint-label: IC50 (nM)
Please respond with the number in nM and leave the unit unwritten.

Here are 2 compounds together with their reported answers.
molecule	experimental-value
O=C1NCc2c(-c3ccccc3Cl)nc(N3CCc4[nH]ncc4C3)nc2N1c1c(Cl)cccc1Cl	28
Nc1nc(-c2ccccc2Cl)c2c(n1)N(c1c(Cl)cccc1Cl)C(=O)NC2	81

Quote IC50 reported for CC1(C)CC(Nc2nc(-c3ccccc3Cl)c3c(n2)N(c2c(Cl)cccc2Cl)C(=O)NC3)CC(C)(C)N1 please.
2.6

---

Property: IC50; scope: individual compounds
- target-or-system: Mitogen-activated protein kinase 14 (Homo sapiens)
- Sequence (Q16539 whole entry): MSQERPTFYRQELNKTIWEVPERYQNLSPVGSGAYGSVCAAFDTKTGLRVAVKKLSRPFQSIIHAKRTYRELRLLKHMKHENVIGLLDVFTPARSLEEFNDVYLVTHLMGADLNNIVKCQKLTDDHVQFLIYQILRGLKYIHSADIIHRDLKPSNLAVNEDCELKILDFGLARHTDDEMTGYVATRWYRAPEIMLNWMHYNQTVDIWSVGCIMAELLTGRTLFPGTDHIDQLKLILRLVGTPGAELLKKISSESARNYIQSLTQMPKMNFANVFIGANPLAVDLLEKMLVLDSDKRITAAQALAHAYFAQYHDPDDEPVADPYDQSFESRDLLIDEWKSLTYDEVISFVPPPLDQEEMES
- experiment: Inhibition of p38alpha
Record the value in nM, omitting the unit from your answer.

// solved cases for IC50 follow
compound	unit-info	IC50
COCCNc1nc(-c2ccc(Cl)cc2Cl)c2c(n1)N(c1c(Cl)cccc1Cl)C(=O)NC2	nM	2
CC(C)(C)CNc1nc(-c2ccccc2Cl)c2c(n1)N(c1c(Cl)cccc1Cl)C(=O)NC2	nM	0.8

Input CN(C)CCNc1nc(-c2ccc(Cl)cc2Cl)c2c(n1)N(c1c(Cl)cccc1Cl)C(=O)NC2 , output reported IC50.
5.6

Please list IC50 recorded for the compound Nc1nc(-c2ccccc2Cl)c2c(n1)N(c1c(Cl)cccc1Cl)C(=O)NC2
5.3

Quote IC50 reported for CC1(C)CC(Nc2nc(-c3ccccc3Cl)c3c(n2)N(c2c(Cl)cccc2Cl)C(=O)NC3)CC(C)(C)N1 please.
0.7

Identify measured IC50 associated with CN(C)CCN1CCN(c2nc(-c3ccc(Cl)cc3Cl)c3c(n2)N(c2c(Cl)cccc2Cl)C(=O)NC3)CC1
1

Give me measured IC50, please, for this compound: O=C1NCc2c(-c3ccccc3Cl)nc(NN3CCOCC3)nc2N1c1c(Cl)cccc1Cl
4

---

- target-or-system: Voltage-gated L-type calcium channel (Homo sapiens, UniProt Q13936+Q13698+Q01668+O60840)
- experiment: Binding affinity to DLZ binding site of calcium channel
- Format: protein assay
Decide by Activity: equal to or exceeding 6 µM means 1.0, less means 0.0.

Please tell me: is the compound CC1(C)CC(Nc2nc(-c3ccccc3Cl)c3c(n2)N(c2c(Cl)cccc2Cl)C(=O)NC3)CC(C)(C)N1 at or over 6 µM in terms of Activity?
0.0

Assess whether reported Activity for CN1C2CCC1CC(Nc1nc(-c3ccccc3Cl)c3c(n1)N(c1c(Cl)cccc1Cl)C(=O)NC3)C2 (configuration not stated) sits at 6 µM or higher.
0.0

Could you please find out whether CN(C)CCNc1nc(-c2ccc(Cl)cc2Cl)c2c(n1)N(c1c(Cl)cccc1Cl)C(=O)NC2 has Activity that meets 6 µM or exceeds it?
0.0

Decide: Activity of O=C1NCc2c(-c3ccccc3Cl)nc(N3CCc4[nH]ncc4C3)nc2N1c1c(Cl)cccc1Cl >= 6 µM?
1.0

---

The compounds listed here are annotated with their bioavailability.
- experiment: Oral bioavailability in rat
- Assay type: ADME, organism-based
- condition-label: in vivo
Expressed in %, but write only the number.

molecule	endpoint-label	unit-info	experimental-value
Nc1nc(-c2ccccc2Cl)c2c(n1)N(c1c(Cl)cccc1Cl)C(=O)NC2	bioavailability	%	100

Supply bioavailability value. Item: CC(C)N1CCC(Nc2nc(-c3ccccc3Cl)c3c(n2)N(c2c(Cl)cccc2Cl)C(=O)NC3)CC1
24

# return recorded bioavailability for entry CN(C)CCN1CCN(c2nc(-c3ccc(Cl)cc3Cl)c3c(n2)N(c2c(Cl)cccc2Cl)C(=O)NC3)CC1
3

Assign bioavailability to the following record: CC(C)N1CCC(c2cc3c(c(-c4ccccc4Cl)n2)CNC(=O)N3c2c(Cl)cccc2Cl)CC1
18
